Below, each entry is listed with its recorded abundance fitness.
B1: Ankyrin-1, residues 1405 to 1484; numbered along this chain, P16157 (parent)
chain: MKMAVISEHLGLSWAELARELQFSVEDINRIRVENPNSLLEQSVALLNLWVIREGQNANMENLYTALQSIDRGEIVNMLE

Variants of: B1
Experiment: abundance fitness (aPCA) (normalised: wild type 0, dead -1); higher = more abundant; growth selection in yeast, the domain comes from the species named
Conditions: Homo sapiens

MUTATION_ID: L49D
abundance fitness: -0.196
//
MUTATION_ID: N37P
abundance fitness: -1.09
//
MUTATION_ID: T65K
abundance fitness: -0.055
//
MUTATION_ID: V51T
abundance fitness: 0.068
//
MUTATION_ID: L49C
abundance fitness: -0.097
//
MUTATION_ID: V25I
abundance fitness: -0.143
//
MUTATION_ID: V51Y
abundance fitness: -0.023
//
MUTATION_ID: G55S
abundance fitness: -0.277
//
MUTATION_ID: L47D
abundance fitness: -0.743
//
MUTATION_ID: Q68V
abundance fitness: -0.08
//
MUTATION_ID: E41P
abundance fitness: -0.574
//
MUTATION_ID: L39Y
abundance fitness: 0.004
//
MUTATION_ID: D71S
abundance fitness: -0.213
